system.name: SARS-COV-2 RBD extracellular domain expressed with a C-terminal mouse IgG2a (SARS-CoV-2)
pKd: −log10 of the molar value.
Readings of pKd for the listed binders

- binder: "mAb10954 (antibody, V domains shown) VH: EVQLVESGGGLVQPGGSLRLSCAASGITVSSNYMSWVRQAPGKGLEWVSLIYSGGSTYYADSVKGRFTISRDNSKNTLYLQMNSLRVEDTAVYYCARDHGMAAAGYNYWGQGTLVTVSS VL: DIQMTQSPSSLSASVGDRVTITCQASQDINKYLNWYQQKPGKAPKLLIYDASNLETGVPSRFSGSGSGTDFTFTINSLQPEDFATYFCQQYDNLPPAFGQGTKVEIKR"
  pKd: "≥ 10.76"
- binder: "mAb10967 (antibody, V domains shown) VH: EVQLVESGGGLVQPGGSLRLSCAASGFTVSSNYMSWVRQAPGKGLEWVSVIYPGGSTFYADSVKGRFTISRDNSKNTLYLQMNSLRAEDTAVYYCARDQRDFAWGQGTLVTVSS VL: DIQMTQSPSSLSASVGDRVTITCQASQDISNYLNWYQQKPGKAPKLLIYDASNLETGVPSRFSGSGSGTDFTFTISGLQPEDIATYYCQQYDNLPPTFGQGTRLEIKR"
  pKd: "≥ 10.60"
- binder: "mAb10985 (antibody, V domains shown) VH: EVQLVESGGGLVQPGRSLRLSCAASGFTFDDYAMHWVRQAPGKGLEWVSGISWNRGSIGYADSVKGRFTISRDNAKNSLYLQMSSLRAEDTALYYCAKDGERWDSVVVPSARNGMDVWGQGTTVTVSS VL: QSVLTQPPSVSGAPGQRVTISCTGSSSNIGAGYDVHWYQQLPGTAPKLLIYGNSNRPSGVPDRFSGSKSGTSASLAITGLQAEDEADYYCQSYDSSLSGSYVFGTGTKVTVLG"
  pKd: 10.93
